Where these numbers come from: paper PMC9322451

assay explanation: Phase 1 part A: PK after single and multiple once-daily oral doses
Format: in vivo, human
study conditions: human, plasma, po, 10 mg, Day 1, 10 mg, Japanese; mean (CV%)
observation type: AUC (ng·h/mL)

molecule="Cn1c(=O)oc2ccc(-c3ccc(C[C@@H](C#N)NC(=O)[C@@H]4CNCCCO4)cc3)cc21 [Brensocatib]" recorded_value=628

====

assay explanation: Phase 1 part A: PK after single and multiple once-daily oral doses
Type: in vivo, human
study conditions: human, plasma, oral, 25 mg, Day 30, 25 mg once daily, White; mean (CV%); read-out: Cavg
observation type: concentration at 30 day (ng/mL)

smiles=Cn1c(=O)oc2ccc(-c3ccc(C[C@@H](C#N)NC(=O)[C@@H]4CNCCCO4)cc3)cc21 observation_type="concentration at 30 day" recorded_value=161

====

assay explanation: Phase 1 part A: PK after single and multiple once-daily oral doses
Assay type: in vivo, human
study conditions: human, plasma, po, 25 mg, Day 1, 25 mg, White; mean (CV%)
observation type: AUC(0-t) (ng·h/mL)

molecule="Cn1c(=O)oc2ccc(-c3ccc(C[C@@H](C#N)NC(=O)[C@@H]4CNCCCO4)cc3)cc21 [Brensocatib]" observation_type=AUC(0-t) recorded_value=2810

====

assay explanation: Phase 1 part B: PK of single 40 mg oral dose, fasted vs fed (food effect)
Type: in vivo, human
study conditions: human, plasma, po, 40 mg, 40 mg single oral dose, Japanese, fasted; mean (CV%); read-out: t1/2 (converted)
observation type: half-life (h)

smiles=Cn1c(=O)oc2ccc(-c3ccc(C[C@@H](C#N)NC(=O)[C@@H]4CNCCCO4)cc3)cc21 observation_type=half-life recorded_value=19.3

====

assay explanation: Phase 1 part B: PK of single 40 mg oral dose, fasted vs fed (food effect)
Format: in vivo, human
study conditions: human, plasma, oral, 40 mg, White n=10, fasted; least squares mean
observation type: AUC(0-t) (ng·h/mL)

smiles=Cn1c(=O)oc2ccc(-c3ccc(C[C@@H](C#N)NC(=O)[C@@H]4CNCCCO4)cc3)cc21 observation_type=AUC(0-t) output_unit=ng·h/mL recorded_value=5150

====

assay explanation: Phase 1 part A: PK after single and multiple once-daily oral doses
Assay type: in vivo, human
study conditions: human, plasma, oral, 25 mg, Day 30, 25 mg once daily, Japanese; mean (CV%); read-out: Cavg
observation type: concentration at 30 day (ng/mL)

compound="Cn1c(=O)oc2ccc(-c3ccc(C[C@@H](C#N)NC(=O)[C@@H]4CNCCCO4)cc3)cc21 [Brensocatib]" observation_type="concentration at 30 day" recorded_value=174

====

assay explanation: Phase 1 part B: PK of single 40 mg oral dose, fasted vs fed (food effect)
Assay type: in vivo, human
study conditions: human, plasma, po, 40 mg, 40 mg single oral, fasted, Japanese
observation type: Cmax

smiles=Cn1c(=O)oc2ccc(-c3ccc(C[C@@H](C#N)NC(=O)[C@@H]4CNCCCO4)cc3)cc21 recorded_value="338 ng/mL"

====

assay explanation: Phase 1 part A: PK after single and multiple once-daily oral doses
Assay type: in vivo, human
study conditions: human, plasma, po, 10 mg, Day 1, 10 mg, Japanese; mean (CV%)
observation type: Cmax (ng/mL)

smiles=Cn1c(=O)oc2ccc(-c3ccc(C[C@@H](C#N)NC(=O)[C@@H]4CNCCCO4)cc3)cc21 observation_type=Cmax recorded_value=64.5

====

assay explanation: Phase 1 part A: PK after single and multiple once-daily oral doses
Format: in vivo, human
study conditions: human, plasma, po, 40 mg, Day 1, 40 mg, Japanese; mean (CV%); read-out: t1/2 (converted)
observation type: half-life (min)

smiles=Cn1c(=O)oc2ccc(-c3ccc(C[C@@H](C#N)NC(=O)[C@@H]4CNCCCO4)cc3)cc21 observation_type=half-life recorded_value=1390

====

assay explanation: Phase 1 part B: PK of single 40 mg oral dose, fasted vs fed (food effect)
Type: in vivo, human
study conditions: human, plasma, po, 40 mg, 40 mg single oral, fasted, Japanese; read-out: Elimination t1/2 (converted)
observation type: half-life (min)

smiles=Cn1c(=O)oc2ccc(-c3ccc(C[C@@H](C#N)NC(=O)[C@@H]4CNCCCO4)cc3)cc21 observation_type=half-life output_unit=min recorded_value=1120

====

assay explanation: Phase 1 part A: PK after single and multiple once-daily oral doses
Type: in vivo, human
study conditions: human, plasma, po, 40 mg, Day 30, 40 mg once daily, White; mean (CV%)
observation type: AUC(0-t) (ng·h/mL)

smiles=Cn1c(=O)oc2ccc(-c3ccc(C[C@@H](C#N)NC(=O)[C@@H]4CNCCCO4)cc3)cc21 output_unit=ng·h/mL recorded_value=10600

====

assay explanation: Phase 1 part A: PK after single and multiple once-daily oral doses
Format: in vivo, human
study conditions: human, plasma, po, 10 mg, Day 30, 10 mg once daily, Japanese; mean (CV%)
observation type: AUC(0-inf)

smiles=Cn1c(=O)oc2ccc(-c3ccc(C[C@@H](C#N)NC(=O)[C@@H]4CNCCCO4)cc3)cc21 recorded_value="1980 ng·h/mL"

====

assay explanation: Phase 1 part A: PK after single and multiple once-daily oral doses
Format: in vivo, human
study conditions: human, plasma, po, 40 mg, Day 30, 40 mg once daily, Japanese; mean (CV%)
observation type: AUC(0-t)

smiles=Cn1c(=O)oc2ccc(-c3ccc(C[C@@H](C#N)NC(=O)[C@@H]4CNCCCO4)cc3)cc21 recorded_value="6400 ng·h/mL"

====

assay explanation: Phase 1 part A: PK after single and multiple once-daily oral doses
Assay type: in vivo, human
study conditions: human, plasma, oral, single dose, Japanese participants, range over dose groups; read-out: Elimination t1/2
observation type: half-life

molecule="Cn1c(=O)oc2ccc(-c3ccc(C[C@@H](C#N)NC(=O)[C@@H]4CNCCCO4)cc3)cc21 [Brensocatib]" recorded_value="18.4 to 22.4 h"

====

assay explanation: Phase 1 part A: PK after single and multiple once-daily oral doses
Format: in vivo, human
study conditions: human, plasma, oral, 25 mg, Day 30, 25 mg once daily, White; mean (CV%); read-out: Cmin
observation type: concentration at 30 day

smiles=Cn1c(=O)oc2ccc(-c3ccc(C[C@@H](C#N)NC(=O)[C@@H]4CNCCCO4)cc3)cc21 recorded_value="93.9 ng/mL"

====

assay explanation: Phase 1 part A: PK after single and multiple once-daily oral doses
Type: in vivo, human
study conditions: human, plasma, po, 10 mg, Day 30, 10 mg once daily, White; mean (CV%); read-out: t1/2 (converted)
observation type: half-life (h)

smiles=Cn1c(=O)oc2ccc(-c3ccc(C[C@@H](C#N)NC(=O)[C@@H]4CNCCCO4)cc3)cc21 recorded_value=28.1

====

assay explanation: Phase 1 part A: PK after single and multiple once-daily oral doses
Type: in vivo, human
study conditions: human, plasma, oral, range over groups (abstract); read-out: Elimination half‐life
observation type: half-life

smiles=Cn1c(=O)oc2ccc(-c3ccc(C[C@@H](C#N)NC(=O)[C@@H]4CNCCCO4)cc3)cc21 observation_type=half-life recorded_value="22 to 28 h"

====

assay explanation: Phase 1 part B: PK of single 40 mg oral dose, fasted vs fed (food effect)
Assay type: in vivo, human
study conditions: human, plasma, oral, 40 mg, White n=10, fed; least squares mean
observation type: AUC(0-t) (ng·h/mL)

smiles=Cn1c(=O)oc2ccc(-c3ccc(C[C@@H](C#N)NC(=O)[C@@H]4CNCCCO4)cc3)cc21 recorded_value=5210

====

assay explanation: Phase 1 part B: PK of single 40 mg oral dose, fasted vs fed (food effect)
Assay type: in vivo, human
study conditions: human, plasma, po, 40 mg, 40 mg single oral, fasted, White
observation type: AUC(0-inf) (ng·h/mL)

smiles=Cn1c(=O)oc2ccc(-c3ccc(C[C@@H](C#N)NC(=O)[C@@H]4CNCCCO4)cc3)cc21 recorded_value=6200

====

assay explanation: Phase 1 part B: PK of single 40 mg oral dose, fasted vs fed (food effect)
Type: in vivo, human
study conditions: human, plasma, po, 40 mg, 40 mg single oral dose, Japanese, fasted; mean (CV%)
observation type: Cmax (ng/mL)

smiles=Cn1c(=O)oc2ccc(-c3ccc(C[C@@H](C#N)NC(=O)[C@@H]4CNCCCO4)cc3)cc21 output_unit=ng/mL recorded_value=352

====

assay explanation: Phase 1 part B: PK of single 40 mg oral dose, fasted vs fed (food effect)
Type: in vivo, human
study conditions: human, plasma, oral, 40 mg, fasted and fed, White; read-out: Mean t1/2 (converted)
observation type: half-life

smiles=Cn1c(=O)oc2ccc(-c3ccc(C[C@@H](C#N)NC(=O)[C@@H]4CNCCCO4)cc3)cc21 recorded_value="27 to 28 h"

====

assay explanation: Phase 1 part A: PK after single and multiple once-daily oral doses
Format: in vivo, human
study conditions: human, plasma, po, 25 mg, Day 30, 25 mg once daily, Japanese; mean (CV%); read-out: t1/2 (converted)
observation type: half-life

smiles=Cn1c(=O)oc2ccc(-c3ccc(C[C@@H](C#N)NC(=O)[C@@H]4CNCCCO4)cc3)cc21 recorded_value="23.3 h"
